experimentalSystem: Guanyl-specific ribonuclease T1 (Aspergillus oryzae (strain ATCC 42149 / RIB 40)) (UniProt P00651)
Sequence (P00651 whole entry, looked up): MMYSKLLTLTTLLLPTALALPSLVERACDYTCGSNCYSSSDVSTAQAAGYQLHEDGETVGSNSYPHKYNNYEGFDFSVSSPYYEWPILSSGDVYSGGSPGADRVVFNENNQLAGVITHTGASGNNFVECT
testDescription: RNase T1 inhibitors, counter-screen for TPT1 inhibitor project, biochemical, fluorescence polarization (AID 2153);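 further: plate controls were DMSO wells with enzyme for no effect and wells without RNase T1 for full effect; inhibitors block cleavage so intact labeled substrate keeps polarization high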
experimentalParameters: RNase T1 cleavage, 1536-well, at 5 µM, hits give high values
Among all 2,400 compounds or so, about 2,000 (83%) were called active. The set was probably picked from earlier hits. Not all results are given here.
Form field: inhibition (one value per entry).
Numeric answer only, unit % assumed.

Known inhibition results, listed for orientation:
1. CN(C)c1ccc(/C=C2\NC(=S)N(Cc3ccccc3)C2=O)cc1    144
2. CCOC(=O)/C(C#N)=C/c1ccc(N2CCCCC2)cc1    129
3. CCOc1ccc(/C=C2\SC(=S)N(NC(=O)c3ccncc3)C2=O)cc1OC    65.5
4. N#C/C(=C/c1ccc(N2CCCCC2)o1)C(=O)NCCc1c[nH]c2ccccc12    170
5. N#CC1=C(N)Oc2c(sc3ccccc23)C1c1ccco1 (stereo not given)    76.9

For the compound CCOc1ccc2nc(/N=C/c3nc(-c4ccccc4)oc3O)sc2c1 , give its reported inhibition.
65.4

State, in one line, measured inhibition of O=C1NC(=O)C2C1C(c1ccc([N+](=O)[O-])cc1)=NN2Cc1ccccc1 (stereo not given)
48

Give recorded inhibition. CCOC(=O)c1c(NC(=S)Nc2ccccc2)sc2c1CCN(C)C2
54

Read the entry Cc1ccc(-n2c(C)cc(/C=N/Nc3ccc([N+](=O)[O-])cn3)c2C)c(C)c1 and write its reported inhibition.
76.1

Determine from records and report inhibition for COc1cc(/C=C(\C#N)c2nc3c(s2)CC(C)CC3)ccc1O (stereo not given)
125
